Each entry below carries its reported pIC50.
- tested.target: SMYD3 (Homo sapiens (Human), UniProt Q9H7B4)
- Sequence (Q9H7B4 whole entry): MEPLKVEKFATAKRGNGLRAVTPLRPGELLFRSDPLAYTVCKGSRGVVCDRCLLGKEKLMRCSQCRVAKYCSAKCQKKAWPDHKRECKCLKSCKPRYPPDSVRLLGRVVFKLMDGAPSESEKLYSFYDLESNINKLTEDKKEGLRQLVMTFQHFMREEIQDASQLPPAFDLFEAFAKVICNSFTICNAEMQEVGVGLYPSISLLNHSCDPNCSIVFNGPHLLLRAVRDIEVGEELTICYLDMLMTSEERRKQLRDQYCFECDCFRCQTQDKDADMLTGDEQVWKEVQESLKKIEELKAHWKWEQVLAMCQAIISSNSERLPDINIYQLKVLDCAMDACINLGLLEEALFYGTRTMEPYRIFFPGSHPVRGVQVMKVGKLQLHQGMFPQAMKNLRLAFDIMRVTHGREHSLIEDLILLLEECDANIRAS
- method.summary: SMYD3 biochemical assay (SPA, 3H-SAM methylation of MEKK2 protein substrate)
- condition.details: read-out: SMYD3 Biochem IC50*
- Source text: S-adenosylmethionine (SAM), S-adenosylhomocysteine (SAH), Tris, Tween20, dimethylsulfoxide (DMSO), bovine skin gelatin (BSG), and Tris(2-carboxyethyl)phosphine hydrochloride solution (TCEP) were purchased from Sigma-Aldrich at the highest level of purity possible. ^3H-SAM was purchase from American Radiolabeled Chemicals with a specific activity of 80 Ci/mmol. 384-well opaque white OptiPlates and SPA beads (Perkin Elmer, catalog # RPNQ0013) were purchased from PerkinElmer. […]
pIC50 here: minus log base 10 of the concentration, concentration in moles per litre.

Some compounds with known pIC50 results, for comparison:
CN(CCc1ccccc1)C1CCN(S(=O)(=O)N2[C@@H]3CC[C@H]2C[C@@H](NC(=O)c2cc(C4CC4)on2)C3)CC1 [compound 844] : 8.28
O=C(N[C@H]1C[C@H]2CC[C@@H](C1)N2S(=O)(=O)[C@H]1CC[C@H](NCCO)CC1)c1cc(C2CC2)on1 [compound 768] : 9.15
O=C(N[C@H]1C[C@H]2CC[C@@H](C1)N2S(=O)(=O)N1CCC(NCCc2ccccc2)CC1)c1cc(C2CC2)on1 [compound 791] : 8.74

Give pIC50 only, for CC(C)CNC1CCN(S(=O)(=O)N2[C@@H]3CC[C@H]2C[C@@H](NC(=O)c2cc(C4CC4)on2)C3)CC1 [compound 853] , using SMYD3 (Homo sapiens (Human), UniProt Q9H7B4) data.
8.18

Give pIC50 only, for CCc1cc(C(=O)N[C@H]2C[C@H]3CC[C@@H](C2)N3S(=O)(=O)CC2CCN(C)CC2)no1 [compound 797] , using SMYD3 (Homo sapiens (Human), UniProt Q9H7B4) data.
8.72

Give pIC50 only, for CCN(C)C1CCN(S(=O)(=O)N2[C@@H]3CC[C@H]2C[C@@H](NC(=O)c2cc(C4CC4)on2)C3)CC1 [compound 852] , using SMYD3 (Homo sapiens (Human), UniProt Q9H7B4) data.
8.19

Give pIC50 only, for C[C@H]1C[C@@H](NC(=O)c2cc(C3CC3)on2)CCN1S(=O)(=O)C[C@@H]1CCCNC1 [compound 875] , using SMYD3 (Homo sapiens (Human), UniProt Q9H7B4) data.
8.00

---

Each entry below carries its reported IC50.
- tested.target: SMYD3 (Homo sapiens (Human))
- method.summary: SMYD3 biochemical assay (SPA, 3H-SAM methylation of MEKK2 protein substrate)
- condition.details: read-out: SMYD3 Biochem IC50 (μM)*
The figure you give is taken to be in µM; do not add the unit.

Some molecules with known IC50 results, for comparison:
NC1CCC(C(=O)N2CCC(NC(=O)c3cc(C4CC4)on3)C3(CC3)C2)CC1 (centres unmarked) : 0.245
C[C@H]1C[C@@H](NC(=O)c2cc(C3CC3)on2)CCN1C(=O)[C@H]1CC[C@H](N)CC1 : 7.97
C[C@@H]1CC(NC(=O)c2cc(C3CC3)on2)CCN1C(=O)CCC1CCNC1 (some centres unmarked) : 0.953
C[C@@H]1C[C@@H](NC(=O)c2cc(C3CC3)on2)CCN1S(=O)(=O)c1ccccc1 : 3.98
N[C@H]1CC[C@H](C(=O)N2C3CCCC2CC(NC(=O)c2cc(C4CC4)on2)C3)CC1 (some centres unmarked) : 5.35

Next molecule, please.
Tell me measured IC50 for `C[C@@H]1C[C@H](NC(=O)c2cc(C3CC3)on2)CCN1C(=O)c1ccc(C(C)(C)N)cc1` please.
0.122

---

- tested.target: SMYD3 (Homo sapiens (Human))
- method.summary: SMYD3 cell assay (Trimethyl-MEKK2 In-Cell Western in 293T/17 cells)
- Type: cell-based
- condition.details: read-out: SMYD3 Cell IC50*
outcome.measure: pIC50
pIC50 here: minus log base 10 of the concentration, concentration in moles per litre.

Some molecules with known pIC50 results, for comparison:
C[C@H]1C[C@@H](NC(=O)c2cc(C3CC3)on2)CCN1S(=O)(=O)N1CCC(C)(N)CC1 : 7.59
CN(CCN1CCCC1)C1CCN(S(=O)(=O)N2[C@@H]3CC[C@H]2C[C@@H](NC(=O)c2cc(C4CC4)on2)C3)CC1 : 6.42
CN(CCCN1CCCC1)C1CCN(S(=O)(=O)N2[C@@H]3CC[C@H]2C[C@@H](NC(=O)c2cc(C4CC4)on2)C3)CC1 : 6.63

Next molecule, please.
Tell me measured pIC50 for `CN(CCO)C1CCN(S(=O)(=O)N2[C@@H]3CC[C@H]2C[C@@H](NC(=O)c2cc(C4CC4)on2)C3)CC1` please.
7.24

---

- tested.target: SMYD3 (Homo sapiens (Human), UniProt Q9H7B4)
- method.summary: SMYD3 cell assay (Trimethyl-MEKK2 In-Cell Western in 293T/17 cells)
- Format: cell-based
- condition.details: read-out: SMYD3 Cell IC50*
Each entry below carries its reported pIC50.
pIC50 here: minus log base 10 of the concentration, concentration in moles per litre.

CCc1cc(C(=O)N[C@H]2C[C@H]3CC[C@@H](C2)N3S(=O)(=O)[C@H]2CC[C@@H](N)CC2)no1 : 7.28
C[C@H]1C[C@@H](NC(=O)c2cc(C3CC3)on2)CCN1S(=O)(=O)CC1CCCC(N)C1 (stereo partly shown) : 7.14

Give pIC50 only, for CC1(N)CCC(S(=O)(=O)N2[C@@H]3CC[C@H]2C[C@@H](NC(=O)c2cc(C4CC4)on2)C3)CC1 (stereo partly shown) , using SMYD3 (Homo sapiens (Human), UniProt Q9H7B4) data.
7.06

---

- tested.target: SMYD3 (Homo sapiens (Human), UniProt Q9H7B4)
- method.summary: SMYD3 cell assay (Trimethyl-MEKK2 In-Cell Western in 293T/17 cells)
- Format: cell-based
- condition.details: read-out: SMYD3 Cell IC50*
# Condition met = IC50 below 60 nM (exclusive); Condition not met = IC50 at/above 60 nM

Worked examples follow.
O=C(N[C@H]1C[C@H]2CC[C@@H](C1)N2S(=O)(=O)NC1CCN[C@@H](Cc2ccccc2)C1)c1cc(C2CC2)on1 (stereo partly drawn) : Condition not met
O=C(N[C@H]1C[C@H]2CC[C@@H](C1)N2S(=O)(=O)N1CCC(NCCCC(F)(F)F)CC1)c1cc(C2CC2)on1 : Condition met
O=C(N[C@H]1C[C@H]2CC[C@@H](C1)N2S(=O)(=O)N1CCC2(CCN2)CC1)c1cc(C2CC2)on1 : Condition not met
O=C(N[C@H]1C[C@H]2CC[C@@H](C1)N2S(=O)(=O)N1CCC(NCc2c(F)cccc2F)CC1)c1cc(C2CC2)on1 : Condition not met
O=C(N[C@H]1C[C@H]2CC[C@@H](C1)N2S(=O)(=O)N1CCC(NCCO)CC1)c1cc(C2CC2)on1 : Condition met

Please check: IC50 for `O=C(N[C@H]1C[C@H]2CC[C@@H](C1)N2S(=O)(=O)N1CCC(NCCc2ccccc2)CC1)c1cc(C2CC2)on1` , strictly under 60 nM or not?
Condition met

Please check: IC50 for `CCN1CCC(CS(=O)(=O)N2[C@@H]3CC[C@H]2C[C@@H](NC(=O)c2cc(C4CC4)on2)C3)CC1` , strictly under 60 nM or not?
Condition met

---

Each entry below carries its reported pIC50.
- tested.target: SMYD3 (Homo sapiens (Human), UniProt Q9H7B4)
- method.summary: SMYD3 cell assay (Trimethyl-MEKK2 In-Cell Western in 293T/17 cells)
- Type: cell-based
- condition.details: read-out: SMYD3 Cell IC50*
pIC50 here: minus log base 10 of the concentration, concentration in moles per litre.

Some molecules with known pIC50 results, for comparison:
C[C@H]1C[C@@H](NC(=O)c2cc(C3CC3)on2)CCN1S(=O)(=O)[C@H]1CC[C@H](N)CC1 : 7.75
CC(C)c1cc(C(=O)N[C@H]2C[C@H]3CC[C@@H](C2)N3S(=O)(=O)[C@H]2CC[C@H](N)CC2)no1 : 7.06
CC1CN(S(=O)(=O)N2CC[C@H](NC(=O)c3cc(C4CC4)on3)C[C@@H]2C)CCC1N (stereo partly shown) : 7.40

Tell me measured pIC50 for `O=C(N[C@H]1C[C@H]2CC[C@@H](C1)N2S(=O)(=O)C[C@@H]1CCCCN1)c1cc(C2CC2)on1` please.
6.62

---

- tested.target: SMYD3 (Homo sapiens (Human))
- method.summary: SMYD3 biochemical assay (SPA, 3H-SAM methylation of MEKK2 protein substrate)
- condition.details: read-out: SMYD3 Biochem IC50 (μM)*
Structures can show the parent of a compound that is named as a salt.
outcome.measure: IC50 (µM)
The figure you give is taken to be in µM; do not add the unit.

Some compounds with known IC50 results, for comparison:
C[C@@H]1CC(NC(=O)c2cc(C3CC3)on2)CCN1C(=O)C(C)(C)C1CCNCC1 (stereo partly shown) [compound 164] : 5.91
C[C@H]1C[C@@H](NC(=O)c2cc(C3CC3)on2)CCN1S(=O)(=O)CCCN [compound 187] : 0.00409
CCOC(=O)C1CN(S(=O)(=O)CCCN)CCC1NC(=O)c1cc(C2CC2)on1 (stereo not shown) [compound 331] : 0.147
NC[C@@H](Cc1ccc(O)c(I)c1)C(=O)N1CCC(NC(=O)c2cc(C3CC3)on2)CC1 [compound 28] : 2.04
C[C@H]1C[C@@H](NC(=O)c2cc(C3CC3)on2)CCN1C(=O)CC(CN)c1ccccc1 (stereo partly shown) [compound 338] : 0.842
C[C@@H]1CC(NC(=O)c2cc(C3CC3)on2)CCN1C(=O)C1CC2(CC(N)C2)C1 (stereo partly shown) [compound 175] : 0.274

Give IC50 only, for O=C(N[C@H]1CCN(C(=O)CC2CCNCC2)[C@@H](Cc2ccccc2)C1)c1cc(C2CC2)on1 [Cpd. No. 348, hydrochloride] , using SMYD3 (Homo sapiens (Human)) data.
0.0225

Give IC50 only, for O=C1Cc2cc(S(=O)(=O)N3[C@@H]4CC[C@H]3C[C@@H](NC(=O)c3cc(C5CC5)on3)C4)c(Cl)cc2N1 [compound 432] , using SMYD3 (Homo sapiens (Human)) data.
6.3

Give IC50 only, for C[C@@H]1C[C@H](NC(=O)c2cc(C3CC3)on2)CCN1S(=O)(=O)N1CCN(C)CC1 [compound 255] , using SMYD3 (Homo sapiens (Human)) data.
1.2

Give IC50 only, for C[C@H]1C[C@H](NC(=O)c2cc(C3CC3)on2)CCN1S(=O)(=O)c1ccc(N(C)CCN)nc1 [compound 462] , using SMYD3 (Homo sapiens (Human)) data.
0.305

Give IC50 only, for C[C@H]1C[C@@H](NC(=O)c2cc(C3CC3)on2)CCN1S(=O)(=O)c1ccc(Cl)nc1 [compound 318] , using SMYD3 (Homo sapiens (Human)) data.
1.88

Give IC50 only, for NC[C@@H](Cc1ccccc1)C(=O)N1CCC(NC(=O)c2cc(C3CC3)on2)CC1 [compound 10] , using SMYD3 (Homo sapiens (Human)) data.
0.319

Give IC50 only, for NCCCS(=O)(=O)N1[C@@H]2CC[C@H]1C[C@H](NC(=O)c1cc(C3CC3)on1)C2 [compound 484] , using SMYD3 (Homo sapiens (Human)) data.
0.0792

Give IC50 only, for CC[C@H]1CN(C(=O)C2CCC(N)CC2)CC[C@@H]1NC(=O)c1cc(C2CC2)on1 (stereo partly shown) [compound 93] , using SMYD3 (Homo sapiens (Human)) data.
1.61

Give IC50 only, for C[C@H](C(=O)N1CC[C@H](NC(=O)c2cc(C3CC3)on2)C[C@H]1C)C1CCNCC1 [compound 307] , using SMYD3 (Homo sapiens (Human)) data.
0.928

Give IC50 only, for C[C@@H]1C[C@H](NC(=O)c2cc(C3CC3)on2)CCN1C(=O)[C@H](C)C1CCNCC1 [compound 306] , using SMYD3 (Homo sapiens (Human)) data.
0.852

Give IC50 only, for C[C@H](C(=O)N1CC[C@H](NC(=O)c2cc(C3CC3)on2)C[C@@H]1C)C1CCNCC1 [compound 360] , using SMYD3 (Homo sapiens (Human)) data.
0.792

Give IC50 only, for O=C(NC1CC2CCCC(C1)N2C(=O)CC1CCNCC1)c1cc(C2CC2)on1 (stereo not shown) [compound 125] , using SMYD3 (Homo sapiens (Human)) data.
7.76

Give IC50 only, for N[C@H]1C[C@@H](C(=O)N2CCC(NC(=O)c3cc(C4CC4)on3)CC2)C1 [compound 21] , using SMYD3 (Homo sapiens (Human)) data.
5.69
